Would you mind telling me the reported PBM binding z-score of each entry?
System: RARb:RXRa (NR concentration 270 nM, RXRa partner concentration 90 nM)
experimentSummary: PBM binding z-score (relative to random genomic background probes); higher = stronger binding; sequences stand for … in GC…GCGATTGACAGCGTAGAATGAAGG
Lab note: jot down the number only; don't add units.

Asked: Look at this sequence and give its reported PBM binding z-score. "CCTACTGGGCCAAGGTTATTGATCAGTCAAAGCA"
Given back: 0.659

Asked: # iterate: "ATATGTAGGTTAATGGTCATTCAGGTTGGTTCGC"
Given back: 1.45

Asked: # iterate: "AGTGAAAGTTCATCTAGGTAACGTAAGATATGCT"
Given back: 4.63

Asked: # iterate: "CTCGAAAGGTCGGTTGAGGTGAGAATACGGATAA"
Given back: 2.98

Asked: # iterate: "GCGACTGGGGCATCAGCAAGTTACCATAACTTAA"
Given back: 0.453

Asked: # iterate: "ACTAGCAGGTCAAGTTTGGGTCACTCAAACAAAG"
Given back: 4.61

Asked: # iterate: "TCTGCTAGGTCAATGATGGTCAGCTAATCTGCTA"
Given back: 3.72

Asked: # iterate: "AAATGTAGGTTATCGGGTCATTCAGTTTGCGCAT"
Given back: 2.68

Asked: # iterate: "ACTCACGGGTCAACGAGGTTATAGCACGCGTATA"
Given back: 4.27

Asked: # iterate: "GCTCGGATGACAAGGTCAGAGCTTTGTCCGTAGA"
Given back: 2.61

Asked: # iterate: "TGATATAGGTAAACAGGTGAAAGTCCGTAAGTTA"
Given back: 0.511

Asked: # iterate: "CAAACTAGGTCAAGATGTCAAAGTCCGCTTCCCG"
Given back: 4.12

---

Test system: RARb:RXRa (NR concentration 270 nM, RXRa partner concentration 90 nM)
experimentSummary: PBM binding z-score (relative to random genomic background probes); higher = stronger binding; sequences stand for … in GC…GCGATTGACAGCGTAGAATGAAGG
# cutoff 0.9 applies to PBM binding z-score; >= gives Condition met, < gives Condition not met

Asked: Given the entry "TCTCGGAGGACACGATGGTCAGAGCTTTCCAGAG" , answer whether its PBM binding z-score meets or surpasses 0.9.
Given back: Condition met

Asked: # iterate: "AGTCAAAGTTCAGGACGAAGTAACGTAAAGCACG"
Given back: Condition met

Asked: # iterate: "CCGAGTGGGTTATGGGGCATTCAGGCAACGGTGA"
Given back: Condition not met

Asked: # iterate: "TCTTGTAGATTAACAGGAGGTTAAGAAAGATCGA"
Given back: Condition not met

Asked: # iterate: "CCTACTGGGCCATTCATAGGTCATTGATCATATG"
Given back: Condition met

---

Would you mind telling me the reported PBM binding z-score of each entry?
System: PPARg homodimer (NR concentration 180 nM)
experimentSummary: PBM binding z-score (relative to random genomic background probes); higher = stronger binding; sequences stand for … in GC…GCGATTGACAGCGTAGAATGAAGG

Asked: Look at this sequence and give its reported PBM binding z-score. "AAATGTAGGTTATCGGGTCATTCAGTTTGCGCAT"
Given back: 3

Asked: # iterate: "TCATATAGTTAAAAGGTGAAAGTCGGTGTGGTAA"
Given back: 2.01

Asked: # iterate: "CCTACTGGGCCATCGGGTCATTGATATCAACGTT"
Given back: 1.81

Asked: # iterate: "GTACTAAGGTGAATAGGTCGTTGATGAGTAGGCG"
Given back: 1.34

Asked: # iterate: "CCTGCTAGGTCAAGGTCAGCTAATCTACAGTATG"
Given back: 2.21

Asked: # iterate: "AGAATGAGGTGATTAAGATCAGGGAATTGCGGTC"
Given back: -0.484

---

System: RARg homodimer (NR concentration 270 nM)
experimentSummary: PBM binding z-score (relative to random genomic background probes); higher = stronger binding; sequences stand for … in GC…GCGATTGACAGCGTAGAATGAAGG
Classes by PBM binding z-score: c1 (below 2), c2 (2 to below 4), c3 (4 or more)

Asked: Using the reported PBM binding z-score, which band applies to "CCAACTAGGTCAGAACAGGACAGTGAAGGATGAT" ?
Given back: c2

Asked: # iterate: "CTACCAAGGTGAACAAGGTCGATGATTACTATTC"
Given back: c1

Asked: # iterate: "TCTCGGAGGACACCAAGGTCAGAGCTTTCCAGAG"
Given back: c2

Asked: # iterate: "CCTAGTGGGCCATCAGGTCATTGATATCAACGTT"
Given back: c1

Asked: # iterate: "CGAAGTAGGTCAAGGACAGTGAATCTCCGCACGC"
Given back: c3

Asked: # iterate: "ACTATTAGTTGAGACGTGGGCAACCGATAGGTTG"
Given back: c1

Asked: # iterate: "ATCTCTAGGTAACAAGTTCAGTGATAGAGAGGAC"
Given back: c1

Asked: # iterate: "TAGCCAAGGTCATGGGCCAGTATACCACGCGAAC"
Given back: c3

Asked: # iterate: "TTACCAAGGCGAGCTGAGGTCGTTGATCCAACTC"
Given back: c1

Asked: # iterate: "GCTAGTTGGTGAGTAAAAGGTCACACACCGGTCG"
Given back: c3

Asked: # iterate: "CCTAGATGGTCAAGGTCACACACGCTATAGGTAC"
Given back: c3

Asked: # iterate: "TTACCAAGGTGAGCAGAGGTCGTTGATCCAACTC"
Given back: c1

---

Test system: LXRb homodimer (NR concentration 270 nM)
experimentSummary: PBM binding z-score (relative to random genomic background probes); higher = stronger binding; sequences stand for … in GC…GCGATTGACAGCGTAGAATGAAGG
Would you mind telling me the reported PBM binding z-score of each entry?

Asked: Look at this sequence and give its reported PBM binding z-score. "CGTCCAAGGTCCGCAGGTCAGTGAAAGCGACGTG"
Given back: -1.05

Asked: # iterate: "TCTGCTAGGTCAGTTGGTCCGCTAACGAGCTGCC"
Given back: 0.781

Asked: # iterate: "TCAAGTTGGTCACGGAGGTCACACACGACGGGTA"
Given back: 0.603

Asked: # iterate: "CCTAGTTGGTCCGGAGGTCACACACCGGATATGA"
Given back: 0.577

Asked: # iterate: "TCATATACGTAAATGCTAGGTGAAAGTCCGATCT"
Given back: 0.278

Asked: # iterate: "AGAATGAGGTTACCAAAGATCAGAGAAACGCTTG"
Given back: -0.0648

Asked: # iterate: "CGAACGAGGGCATGGGTTGATAGCAAATGCCGAT"
Given back: -0.69

Asked: # iterate: "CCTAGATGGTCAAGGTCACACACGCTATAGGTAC"
Given back: 0.665

Asked: # iterate: "ATCGAAGGGTCGACGAGGTGAGTATACACCGTTT"
Given back: -0.33

Asked: # iterate: "CTTCGGAGGACAACAGGAGGTCAGAGCTGCCAGA"
Given back: -0.45

Asked: # iterate: "AGAACGAGCGCACGCTGAGTTGATAGCAGAGTAG"
Given back: -1.26

Asked: # iterate: "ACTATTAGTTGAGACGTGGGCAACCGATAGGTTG"
Given back: 0.00492

Asked: # iterate: "CCAGACGGGTGAAAGGTAACTCAGTCTGGTACGC"
Given back: -0.986

Asked: # iterate: "ATTTACGGGTCAACGAGGTTATAGCACGCGTATA"
Given back: 1.41

Asked: # iterate: "GCTAGTTGGTCAGTAAAAAGTCACACACCGGTCG"
Given back: -0.0534

Asked: # iterate: "AGTCGAAGTTCAGGACGAGGTAACGTAAAGCACG"
Given back: -0.831

Asked: # iterate: "GCTAGCAGGCCATCTGGGTCACTCAATGACGGGC"
Given back: -0.896

Asked: # iterate: "CAGCGTAGGTCAGGGCCAGTATAGGAGGAACGTT"
Given back: -1.03

Asked: # iterate: "CCGACTGGGGCACAAAGGTTACCATACCATCCGG"
Given back: -1.09

Asked: # iterate: "CTACCAAGGTGAACAAGGGCGTTGATTACTATTC"
Given back: -0.701

Asked: # iterate: "TCTTGTAGATCAATAGAGGTTAAGTAAGTGCGCT"
Given back: -0.0782

Asked: # iterate: "GCTAGTCGGTCAGTAAAAGGTCACACACCGGTCG"
Given back: 0.747

Asked: # iterate: "TCTTGTAGATCAATAGAGCTTAAGAAAGTGCGCT"
Given back: -0.706

Asked: # iterate: "TCTCGGAGGACACGTAAGGTCAGAGCTCGACATC"
Given back: -0.238

Asked: # iterate: "TCTAGTTGGTCACGGAGGTCACCCACGACGGGTA"
Given back: 0.635

Asked: # iterate: "ATCTCTAGGTAAGAAGTTCAGTGAAAGAGAGGAC"
Given back: 0.539
